# test target: human TLR7 (Homo sapiens, UniProt Q9NYK1)
# Sequence (Q9NYK1 27-1049): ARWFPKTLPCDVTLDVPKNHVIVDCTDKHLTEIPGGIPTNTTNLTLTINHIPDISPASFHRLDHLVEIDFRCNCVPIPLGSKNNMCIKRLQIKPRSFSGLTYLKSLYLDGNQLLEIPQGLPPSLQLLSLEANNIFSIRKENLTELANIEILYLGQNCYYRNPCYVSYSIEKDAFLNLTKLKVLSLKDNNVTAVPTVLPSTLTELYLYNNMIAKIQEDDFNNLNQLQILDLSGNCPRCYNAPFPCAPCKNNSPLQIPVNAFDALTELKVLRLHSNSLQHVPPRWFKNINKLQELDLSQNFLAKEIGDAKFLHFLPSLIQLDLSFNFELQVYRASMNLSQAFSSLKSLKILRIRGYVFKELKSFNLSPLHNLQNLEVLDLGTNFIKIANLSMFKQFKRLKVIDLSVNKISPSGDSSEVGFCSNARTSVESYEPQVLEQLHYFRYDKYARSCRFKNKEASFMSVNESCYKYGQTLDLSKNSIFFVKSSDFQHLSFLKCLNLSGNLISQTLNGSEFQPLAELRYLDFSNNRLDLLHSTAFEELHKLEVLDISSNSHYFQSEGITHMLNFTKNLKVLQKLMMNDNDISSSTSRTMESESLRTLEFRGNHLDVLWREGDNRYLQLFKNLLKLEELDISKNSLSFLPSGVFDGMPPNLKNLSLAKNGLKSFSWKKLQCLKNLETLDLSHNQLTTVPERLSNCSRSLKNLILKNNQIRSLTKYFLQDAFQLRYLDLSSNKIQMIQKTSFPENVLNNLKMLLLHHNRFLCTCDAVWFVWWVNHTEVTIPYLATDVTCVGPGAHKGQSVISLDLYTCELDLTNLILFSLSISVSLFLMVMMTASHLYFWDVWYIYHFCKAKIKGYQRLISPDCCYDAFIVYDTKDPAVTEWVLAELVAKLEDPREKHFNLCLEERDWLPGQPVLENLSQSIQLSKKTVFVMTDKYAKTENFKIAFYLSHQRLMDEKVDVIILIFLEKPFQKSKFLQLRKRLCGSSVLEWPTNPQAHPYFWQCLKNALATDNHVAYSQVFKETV
# measurement description: TLR7 inhibition reporter assay (HEK-Blue cells, SEAP reporter, gardiquimod stimulation)
# test context: HEK-Blue cells overexpressing human TLR7, SEAP reporter, gardiquimod 7.5 μM
recorded endpoint: IC50 (nM)

Use the examples below as a reference point.
molecule: COc1cc(-c2[nH]c3ccc(C4CCC(N5CC6(COC6)C5)CC4)cc3c2C(C)C)cn2ncnc12 (stereo not shown) [Example 96]
readout units: nM
IC50: 2
--
molecule: CCN(CC)CC(=O)NC1CCC(c2ccc3[nH]c(-c4cn5ncnc5c(C)c4C)c(C(C)C)c3c2)CC1 (stereo not shown) [Example 125]
readout units: nM
IC50: 11
--
molecule: CCCN1CC(c2ccc3[nH]c(-c4cn5cnnc5c(C)c4C)c(C(C)C)c3c2)C1 [Example 546]
readout units: nM
IC50: 4
--
molecule: CNC(=O)CN1CCOC(c2ccc3[nH]c(-c4cc(C)c5ncnn5c4)c(C(C)C)c3c2)C1 (stereo not shown) [Example 317]
readout units: nM
IC50: 12
--
molecule: Cc1cc(-c2[nH]c3ccc(C4CN(C)CCO4)cc3c2C(C)C)cn2ncnc12 (stereo not shown) [Example 296]
readout units: nM
IC50: 3

[P] CCN(C)C1CCC(c2ccc3[nH]c(-c4cc(OC)c5ncnn5c4)c(C(C)C)c3c2)CC1 (single isomer, unassigned) [Example 65]
[Q] Cc1cc(-c2[nH]c3ccc(C4CCC(NC5COC5)CC4)cc3c2C(C)C)cn2ncnc12 (stereo not shown) [Example 57]
Which of the two items, P and Q , has the greater recorded IC50? Write down the label of the entry you select.
Q
